Target: T1, Botulinum neurotoxin serotype C (BoNT/C) (Clostridium botulinum, UniProt P18640 2-1291)
T1 sequence: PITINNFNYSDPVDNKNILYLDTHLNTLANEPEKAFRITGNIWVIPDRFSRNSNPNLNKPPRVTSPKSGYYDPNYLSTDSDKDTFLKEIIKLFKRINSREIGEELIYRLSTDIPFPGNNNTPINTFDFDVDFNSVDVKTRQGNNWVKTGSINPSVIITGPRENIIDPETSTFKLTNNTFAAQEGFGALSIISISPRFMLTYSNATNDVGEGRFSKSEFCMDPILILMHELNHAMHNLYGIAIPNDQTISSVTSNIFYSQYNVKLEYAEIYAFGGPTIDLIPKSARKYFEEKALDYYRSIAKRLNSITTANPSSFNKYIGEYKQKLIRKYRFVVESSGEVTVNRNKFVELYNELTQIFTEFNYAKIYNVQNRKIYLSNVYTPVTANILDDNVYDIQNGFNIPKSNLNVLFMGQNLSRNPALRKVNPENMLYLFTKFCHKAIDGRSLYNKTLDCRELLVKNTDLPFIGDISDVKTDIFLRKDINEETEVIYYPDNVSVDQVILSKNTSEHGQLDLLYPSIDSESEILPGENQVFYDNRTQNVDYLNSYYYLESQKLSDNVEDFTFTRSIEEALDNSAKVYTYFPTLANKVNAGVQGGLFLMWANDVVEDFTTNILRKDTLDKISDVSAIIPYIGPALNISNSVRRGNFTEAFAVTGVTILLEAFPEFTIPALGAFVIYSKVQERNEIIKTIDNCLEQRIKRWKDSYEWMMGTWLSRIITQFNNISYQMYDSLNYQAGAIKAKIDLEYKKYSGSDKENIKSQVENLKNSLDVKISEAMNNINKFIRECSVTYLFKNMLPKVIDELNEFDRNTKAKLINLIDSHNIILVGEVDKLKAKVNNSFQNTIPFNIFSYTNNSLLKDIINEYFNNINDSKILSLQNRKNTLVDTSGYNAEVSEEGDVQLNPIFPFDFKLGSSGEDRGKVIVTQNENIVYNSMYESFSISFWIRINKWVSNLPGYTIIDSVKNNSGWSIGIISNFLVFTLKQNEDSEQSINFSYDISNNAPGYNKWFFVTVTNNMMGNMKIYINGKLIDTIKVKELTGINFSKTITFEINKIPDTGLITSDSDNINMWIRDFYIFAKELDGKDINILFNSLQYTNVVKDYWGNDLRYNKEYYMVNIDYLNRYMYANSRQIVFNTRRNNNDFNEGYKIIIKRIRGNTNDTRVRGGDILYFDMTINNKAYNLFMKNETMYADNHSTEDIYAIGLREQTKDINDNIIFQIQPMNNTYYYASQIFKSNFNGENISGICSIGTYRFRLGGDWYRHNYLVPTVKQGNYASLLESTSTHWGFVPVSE
Assay: KinExA, IgG
Please go through the items and note down their Kd.
Numeric answer only, unit pM assumed.

The measured Kd associated with 4C10.17 IgG (antibody, V domains shown) VH: QVQLVQSGGGVVQPGRSLRLSCGASRFTFSGFDMHWVRQAPGKGLEWVARISHDGSMADYADSLRGRFTISRDNSKNTLYLQMNSLRVEDTALYYCAKDRWRSGSYPAFEIWGQGTMVTVSS VL: EIVLTQSPSFLSAFVGDRITITCRASQGISNRLAWYQQKPGKAPNLLIHPASSLQSGVPSRFSGSGSGTDFTLTISSLQPEDFATYYCQQANSFPLTFGGGTKVEIKR reads 32.5

Noted for 4C10.20 IgG (antibody, V domains shown) VH: QVQLVQSGGGVVQPGRSLRLSCGASRFTFSGFDMHWVRQAPGKGLEWVARISHDGSMADYADSLRGRFTISRDNSKNTLYLQMNSLRVEDTALYYCAKDPWRSGSYPAFEIWGQGTMVTVSS VL: EIVLTQSPSFLSAFIGDRITITCRASQGIGNRLAWYQQKPGKAPNLLIYPASTLQSGVPSRFSGSGSGTDFTLTISSLQPEDFATYYCQQANSFPLTFGGGTKVEIKR : its Kd reads 1.02

The binder 4C10.8 IgG (antibody, V domains shown) VH: QVQLVQSGGGVVQPGRSLRLSCGASRFTFSGFDMHWVRQAPGKGLEWVARISHDGSMADYADSLRGRFTISRDNSKNTLYLQMNSLRVEDTALYYCAKDPWRSGSYPAFEIWGQGTMVTVSS VL: EIVLTQSPSFLSAFIGDRITITCRASQGISNRLAWYQQKPGKAPNLLIYPASTLQSGVPSRFSGSGSGTDFTLTISSLQPEDFATYYCQQANSFPLTFGGGTKVEIKR showed Kd equal to 3.5
